Values compiled from paper PMC8152265.

- experiment-summary: Serum pharmacokinetics in non-infected mice after single subcutaneous dose
- Type: in vivo, BALB/c mice
- condition-summary: BALB/c, mouse, in vivo, sc, 50 mg/kg
readout-label: Cmax (ng/mL)
Give the value in ng/mL but do not write ng/mL after it.

Problem: Recorded Cmax of C[C@H]1COc2c(N3CCN(C)CC3)c(F)cc3c(=O)c(C(=O)O)cn1c23 , please.
Result: 14700

----------
- experiment-summary: Serum pharmacokinetics in non-infected mice after single subcutaneous dose
- Format: in vivo, BALB/c mice
- condition-summary: BALB/c, mouse, in vivo, sc, 50 mg/kg
readout-label: Tmax (min)
Give the value in min but do not write min after it.

Problem: Recorded Tmax of C[C@H]1COc2c(N3CCN(C)CC3)c(F)cc3c(=O)c(C(=O)O)cn1c23 , please.
Result: 15
